FYI, the data here is from ChEMBL document CHEMBL3414481.

- Experimental System: Vasopressin V1a receptor (Homo sapiens, UniProt P37288)
- Assay: Displacement of [3H]-vasopressin from human vasopressin 1a receptor expressed in HEK293 cell membranes after 1 hr by scintillation proximity assay
- Condition: read-out: Ki
- Sequence (P37288 whole entry): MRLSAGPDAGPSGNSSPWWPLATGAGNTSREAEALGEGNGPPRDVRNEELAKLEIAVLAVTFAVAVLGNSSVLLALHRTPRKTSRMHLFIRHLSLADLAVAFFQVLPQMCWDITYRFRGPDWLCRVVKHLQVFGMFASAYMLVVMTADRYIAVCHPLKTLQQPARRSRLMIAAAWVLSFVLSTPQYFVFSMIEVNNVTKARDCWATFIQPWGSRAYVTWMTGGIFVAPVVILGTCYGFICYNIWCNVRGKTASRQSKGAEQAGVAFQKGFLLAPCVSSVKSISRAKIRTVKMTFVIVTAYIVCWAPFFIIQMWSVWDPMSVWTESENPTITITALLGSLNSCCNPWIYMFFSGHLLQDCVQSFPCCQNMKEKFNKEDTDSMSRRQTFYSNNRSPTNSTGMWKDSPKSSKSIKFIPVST
Measurement Label: Ki (nM)
Provide the reading as a plain figure in nM.

Past entries and their recorded results:
# Line Notation, Ki, nM
measured = [
    ("CN1CCC(n2cc(C(=O)N3CCC4(CC3)OCc3ccccc34)c3ccc(Cl)cc32)CC1", 4),
    ("CN1CCC[C@H]1Cn1cc(C(=O)N2CCC3(CC2)OCc2ccccc23)c2ccc(Cl)cc21", 1),
    ("Cc1c(C(=O)N2CCC(O)(Cc3ccccc3)CC2)c2ccccc2n1Cc1ccccc1", 295),
    ("O=C(c1c[nH]c2cc(Cl)ccc12)N1CCC2(CC1)OCc1ncccc12", 39),
]

Suppose we examine the compound CN(C)CCNC(=O)Cn1cc(C(=O)N2CCC3(CC2)OCc2ccccc23)c2ccc(Cl)cc21 ; what Ki value has been reported? 2

Suppose we examine the compound O=C(c1cccc2ccccc12)N1CCC(O)(Cc2ccccc2)CC1 ; what Ki value has been reported? 6620

Suppose we examine the compound CCOc1ccc2ccccc2c1C(=O)N1CCC2(CC1)OCc1ccccc12 ; what Ki value has been reported? 81

Suppose we examine the compound O=C(c1c[nH]c2cc(Cl)ccc12)N1CCC2(CC1)c1ccccc1CS2(=O)=O ; what Ki value has been reported? 24

Suppose we examine the compound Cc1c(C(=O)N2CCC(O)(Cc3ccccc3)CC2)c2ccccc2n1S(=O)(=O)c1ccccc1 ; what Ki value has been reported? 4990

Suppose we examine the compound O=C(c1c[nH]c2cc(Cl)ccc12)N1CCC2(CC1)COc1ccccc12 ; what Ki value has been reported? 16

Suppose we examine the compound CN1CCN(C(=O)Cn2cc(C(=O)N3CCC4(CC3)OCc3ccccc34)c3ccc(Cl)cc32)CC1 ; what Ki value has been reported? 1

Suppose we examine the compound Cc1c(C(=O)N2CCC3(CC2)OCc2ccccc23)c2ccccc2n1Cc1ccccc1 ; what Ki value has been reported? 2

Suppose we examine the compound O=C(c1c[nH]c2cc(Cl)ccc12)N1CCC(n2c(=O)[nH]c3ccccc32)CC1 ; what Ki value has been reported? 8

###

- Assay: Volume of distribution at steady state in mouse at 2 mg/kg, iv
- Assay type: ADME, organism-based
- Set-up: dose 2 mg/kg, route intravenous
- Condition: in vivo, read-out: Vdss
Measurement Label: Vd
Give the number first and the unit second.

# Line Notation, Vd
records = [
    ("CN1CCC(n2cc(C(=O)N3CCC4(CC3)OCc3ccccc34)c3ccc(Cl)cc32)CC1", "7.2 L/kg"),
    ("CN1CCN(C(=O)Cn2cc(C(=O)N3CCC4(CC3)OCc3ccccc34)c3ccc(Cl)cc32)CC1", "1.5 L/kg"),
    ("CN(C)C(=O)Cn1cc(C(=O)N2CCC3(CC2)OCc2ccccc23)c2ccc(Cl)cc21", "1.2 L/kg"),
    ("CN1CCC[C@H]1Cn1cc(C(=O)N2CCC3(CC2)OCc2ccccc23)c2ccc(Cl)cc21", "2.6 L/kg"),
    ("O=C(c1cn(C[C@@H]2CCCN2)c2cc(Cl)ccc12)N1CCC2(CC1)OCc1ccccc12", "6.8 L/kg"),
    ("CN(C)CCn1cc(C(=O)N2CCC3(CC2)OCc2ccccc23)c2ccc(Cl)cc21", "5.8 L/kg"),
]

Let us examine a further case.
Suppose we examine the compound CN(C)CCNC(=O)Cn1cc(C(=O)N2CCC3(CC2)OCc2ccccc23)c2ccc(Cl)cc21 ; what Vd value has been reported? 4.9 L/kg

###

- Assay: Octanol-buffer partition co-efficient, log D of the compound after 24 hrs by high-throughput shake-flask method
- Type: physicochemical
Measurement Label: logD at 24 h

Past entries and their recorded results:
# Line Notation, logD at 24 h
rows = [
    ("Cc1c(C(=O)N2CCC3(CC2)OCc2ccccc23)c2ccccc2n1Cc1ccccc1", "> 3"),
    ("O=C(c1c[nH]c2ccccc12)N1CCC2(CC1)OCc1ccccc12", "> 3"),
]

Suppose we examine the compound O=C(c1c[nH]c2cc(Cl)ccc12)N1CCC2(CC1)OCc1ccccc12 ; what logD at 24 h value has been reported? 3.7

###

Listed compounds paired with reported Ratio Ki
- Species: Homo sapiens
- Assay: Selectivity ratio of Ki for human vasopressin V2 receptor to Ki for human vasopressin 1a receptor

Past entries and their recorded results:
# Line Notation, Ratio Ki
measured = [
    ("CN1CCN(C(=O)Cn2cc(C(=O)N3CCC4(CC3)OCc3ccccc34)c3ccc(Cl)cc32)CC1", "> 60000"),
    ("CN1CCC(n2cc(C(=O)N3CCC4(CC3)OCc3ccccc34)c3ccc(Cl)cc32)CC1", "> 6750"),
    ("CN(C)CCn1cc(C(=O)N2CCC3(CC2)OCc2ccccc23)c2ccc(Cl)cc21", "> 30000"),
    ("CN1CCC[C@H]1Cn1cc(C(=O)N2CCC3(CC2)OCc2ccccc23)c2ccc(Cl)cc21", 6070),
]

Suppose we examine the compound CN(C)CCNC(=O)Cn1cc(C(=O)N2CCC3(CC2)OCc2ccccc23)c2ccc(Cl)cc21 ; what Ratio Ki value has been reported? 11800

Suppose we examine the compound O=C(c1c[nH]c2cc(Cl)ccc12)N1CCC2(CC1)OCc1ccccc12 ; what Ratio Ki value has been reported? > 6750

Suppose we examine the compound O=C(c1cn(C[C@@H]2CCCN2)c2cc(Cl)ccc12)N1CCC2(CC1)OCc1ccccc12 ; what Ratio Ki value has been reported? > 19300

###

- Experimental System: Vasopressin V1b receptor (Homo sapiens)
- Sequence (P47901 whole entry): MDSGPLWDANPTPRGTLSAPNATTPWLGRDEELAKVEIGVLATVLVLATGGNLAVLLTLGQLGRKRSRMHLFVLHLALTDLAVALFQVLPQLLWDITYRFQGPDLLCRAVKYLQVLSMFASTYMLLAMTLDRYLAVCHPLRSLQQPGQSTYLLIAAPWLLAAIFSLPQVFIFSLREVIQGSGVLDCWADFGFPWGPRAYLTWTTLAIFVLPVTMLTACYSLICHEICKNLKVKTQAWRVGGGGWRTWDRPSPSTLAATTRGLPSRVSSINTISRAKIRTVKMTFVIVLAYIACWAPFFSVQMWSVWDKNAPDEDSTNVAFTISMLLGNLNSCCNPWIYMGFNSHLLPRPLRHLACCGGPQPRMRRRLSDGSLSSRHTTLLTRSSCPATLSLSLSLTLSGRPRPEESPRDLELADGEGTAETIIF
- Assay: Displacement of [3H]-vasopressin from human vasopressin 1b receptor after 1 hr by scintillation proximity assay
- Condition: read-out: Ki
Measurement Label: Ki (µM)
Provide the reading as a plain figure in µM.

Suppose we examine the compound CCOc1ccc2ccccc2c1C(=O)N1CCC(O)(Cc2ccccc2)CC1 ; what Ki value has been reported? 12

###

- Assay: Solubility of the compound in phosphate buffer at pH 6.5 incubated for 1 hr with stirring followed by 2 hrs of shaking by Lysa assay
- Type: physicochemical
Everything with solubility at 3 h lower than 100 µg/mL is Criterion not met; everything else, including exactly 100 µg/mL, is Criterion met.

Solved entries (count: 9):
# Line Notation, Cat
records = [
    ("CN1CCC(n2cc(C(=O)N3CCC4(CC3)OCc3ccccc34)c3ccc(Cl)cc32)CC1", "Criterion not met"),
    ("CN(C)CCn1cc(C(=O)N2CCC3(CC2)OCc2ccccc23)c2ccc(Cl)cc21", "Criterion met"),
    ("O=C(c1c[nH]c2cc(Cl)ccc12)N1CCC2(CC1)OCc1ccccc12", "Criterion not met"),
    ("CN(C)CCNC(=O)Cn1cc(C(=O)N2CCC3(CC2)OCc2ccccc23)c2ccc(Cl)cc21", "Criterion met"),
    ("CN1CCN(C(=O)Cn2cc(C(=O)N3CCC4(CC3)OCc3ccccc34)c3ccc(Cl)cc32)CC1", "Criterion met"),
    ("CN1CCC[C@H]1Cn1cc(C(=O)N2CCC3(CC2)OCc2ccccc23)c2ccc(Cl)cc21", "Criterion met"),
    ("Cc1c(C(=O)N2CCC3(CC2)OCc2ccccc23)c2ccccc2n1Cc1ccccc1", "Criterion not met"),
    ("O=C(c1c[nH]c2ccccc12)N1CCC2(CC1)OCc1ccccc12", "Criterion not met"),
    ("O=C(c1cn(C[C@@H]2CCCN2)c2cc(Cl)ccc12)N1CCC2(CC1)OCc1ccccc12", "Criterion met"),
]

# bool: solubility at 3 h of CN(C)C(=O)Cn1cc(C(=O)N2CCC3(CC2)OCc2ccccc23)c2ccc(Cl)cc21 >= 100 µg/mL Criterion not met

###

- Experimental System: Vasopressin V1a receptor (Homo sapiens)
- Assay: Antagonist activity at human vasopressin 1a receptor expressed in CHO cells assessed as inhibition of vasopressin-induced calcium flux preincubated for 20 mins followed by vasopressin induction measured for 5 mins by FLIPR assay
- Assay type: functional, cell-based
- Sequence (P37288 whole entry, looked up): as the sequence (P37288 whole entry) above
Listed compounds paired with reported Kb
Provide the reading as a plain figure in nM.

Past entries and their recorded results:
# Line Notation, Readout Unit, Kb
data = [
    ("O=C1OC2(CCN(C(=O)c3c[nH]c4cc(Cl)ccc34)CC2)c2ccccc21", "nM", 5),
    ("O=C(c1c[nH]c2cc(Cl)ccc12)N1CCC2(CC1)CNc1ccccc12", "nM", 20),
    ("O=C(c1c[nH]c2cc(Cl)ccc12)N1CCC2(CC1)OCc1ccccc12", "nM", 2.9),
    ("CN(C)CCNC(=O)Cn1cc(C(=O)N2CCC3(CC2)OCc2ccccc23)c2ccc(Cl)cc21", "nM", 0.7),
    ("CN(C)CCn1cc(C(=O)N2CCC3(CC2)OCc2ccccc23)c2ccc(Cl)cc21", "nM", 2.6),
]

Suppose we examine the compound O=C(c1cn(C[C@@H]2CCCN2)c2cc(Cl)ccc12)N1CCC2(CC1)OCc1ccccc12 ; what Kb value has been reported? 1.4

Suppose we examine the compound O=C(c1c[nH]c2cc(Cl)ccc12)N1CCC2(CC1)OCc1ncccc12 ; what Kb value has been reported? 7.8

Suppose we examine the compound O=C(c1c[nH]c2cc(Cl)ccc12)N1CCC2(CC1)OCc1ccncc12 ; what Kb value has been reported? 4.2

Suppose we examine the compound O=C(c1c[nH]c2cc(Cl)ccc12)N1CCC2(CC1)c1ccccc1CS2(=O)=O ; what Kb value has been reported? 11

Suppose we examine the compound O=C(c1c[nH]c2cc(Cl)ccc12)N1CCC2(CC1)OCc1cccnc12 ; what Kb value has been reported? 1.8

Suppose we examine the compound O=C(c1c[nH]c2cc(Cl)ccc12)N1CCC(c2ccccc2)CC1 ; what Kb value has been reported? 43
